Below: a set of entries, each annotated with reported switch fluorescence ratio.
Tested on: ATP;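 further: ATP exposure 15 min at 22 °C before imaging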
assayInfo: switch fluorescence ratio, 500 uM ATP over buffer (Cy3 cluster intensity, sum of 5 cycles each) (fold (ratio)); higher = stronger signal-on switching upon ATP binding; sequences stand for … in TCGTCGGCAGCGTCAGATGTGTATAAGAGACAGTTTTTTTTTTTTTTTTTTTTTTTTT…TC
setupConditions: aptamer strand: ATP DNA aptamer (quencher-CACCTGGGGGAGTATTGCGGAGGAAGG + anchor), 100 nM annealed; ATP concentration: 500 uM
Kindly provide the number alone.

Consider the worked cases shown below.
Input line: Which measured switch fluorescence ratio belongs to `AAGTGCCTGC` , tested on ATP?;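 further: ATP exposure 15 min at 22 °C before imaging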
Output line: 1.02

Input line: Next up: `CTCGGGGGAG`
Output line: 0.991

Input line: What about this sequence? `GAGATGATTT`
Output line: 1.02

New cases:
Input line: Fill in the recorded switch fluorescence ratio for this sequence, with ATP as test system: `GGTTATGTGT`
Output line: 0.964

Input line: Would you mind doing `TATAAGTACG` as well?
Output line: 1.27

Input line: Also need `TTTGGTTCTT` , thanks.
Output line: 1.02

Input line: Another: `GATCGTTTGT`
Output line: 1.01

Input line: Moving on to `CAATGGAGGG`
Output line: 0.992

Input line: Same thing, different sequence: `GTATGTACTG`
Output line: 1.04

Input line: Field entry: `CAGCTAGGTT`
Output line: 1.31

Input line: Continue with `TATTCAGATA`
Output line: 0.977

Input line: Next sequence: `GATATAGCTC`
Output line: 0.999
